# Study target: glutamate binding site on the kainate/AMPA receptor
# Protocol details: Inhibition of [3H]-AMPA binding to the glutamate binding site on the kainate/AMPA receptor, rat brain membranes
# Setup conditions: 10 nM ^3 H-AMPA; membrane preparations from rat brain; unspecific binding with 1 mM glutamate; filtration
Where a name gives a salt, the structure may show the parent alone.
So I've got a bunch of compounds here, and I need their log10 of IC50 values.
log10 IC50, nM

Input line: Record request: log10 of IC50 value, item O=c1[nH]nc2c3ccc(C(F)(F)F)cc3[nH]c(=O)n12
Output line: 3.00

Input line: Same for O=c1[nH]nc2c3cc(Br)c([N+](=O)[O-])cc3[nH]c(=O)n12
Output line: 1.85

Input line: Same for O=c1nc2c3cc(-n4ccnc4)c([N+](=O)[O-])cc3[nH]c(=O)n2[nH]1
Output line: 1.20

Input line: Same for O=c1nc2c3cc(Cl)c([N+](=O)[O-])cc3[nH]c(=O)n2[nH]1 [Example 26, sodium salt]
Output line: 1.91

Input line: Same for O=c1[nH]nc2c3cc(F)c(Cl)cc3[nH]c(=O)n12
Output line: 3.10

Input line: Same for CN(C)c1cc2c(cc1[N+](=O)[O-])[nH]c(=O)n1c(=O)[nH]nc21
Output line: 1.67

Input line: Same for O=c1[nH]nc2c3c(Cl)cc(Cl)cc3[nH]c(=O)n12
Output line: 2.79

Input line: Same for Cc1cc2[nH]c(=O)n3c(=O)[nH]nc3c2cc1C
Output line: 3.36

Input line: Same for O=c1[nH]nc2c3cc(Cl)c(Cl)cc3[nH]c(=O)n12
Output line: 2.82

Input line: Same for O=c1[nH]oc2c1c(=O)[nH]c1cc([N+](=O)[O-])ccc12
Output line: 2.62

Input line: Same for O=c1[nH]nc2c3cc(Cl)c([N+](=O)[O-])cc3[nH]c(=O)n12
Output line: 1.70

Input line: Same for O=c1[nH]nc2c3ccc(F)cc3[nH]c(=O)n12
Output line: 3.91

Input line: Same for O=c1[nH]nc2c3cc([N+](=O)[O-])c(Cl)cc3[nH]c(=O)n12
Output line: 2.56

Input line: Same for O=c1[nH][nH]c2c1c(O)nc1cc(Cl)ccc12
Output line: 3.86

Input line: Same for O=c1[nH]nc2c3cc(N4CCCC4)c([N+](=O)[O-])cc3[nH]c(=O)n12
Output line: 2.21

Input line: Same for O=c1[nH]nc2c3cc(F)c([N+](=O)[O-])cc3[nH]c(=O)n12
Output line: 2.28

Input line: Same for O=c1[nH]nc2c3cc([N+](=O)[O-])c([N+](=O)[O-])cc3[nH]c(=O)n12
Output line: 2.07

Input line: Same for O=c1nc2c3cc(N4CCCC4)c([N+](=O)[O-])cc3[nH]c(=O)n2[nH]1 [sodium salt]
Output line: 2.53

###

# Study target: glycine binding site on the NMDA receptor (Rattus norvegicus, UniProt P35439)
# Construct: membrane preparations from rat brain; from tissue; host or cells: rat brain membranes
# Protocol details: Inhibition of [3H]-DCKA (3H-5,7-dichlorokynurenic acid) binding to the glycine binding site on the NMDA receptor, rat brain membranes
Parameter: pIC50
Kindly note that pIC50 refers to -log10 of the concentration in mol/L and answer with the value alone.

Input line: Record request: pIC50 value, item O=c1[nH]nc2c3cc([N+](=O)[O-])c([N+](=O)[O-])cc3[nH]c(=O)n12
Output line: 6.19

###

# Study target: glycine binding site on the NMDA receptor (Rattus norvegicus, UniProt P35439)
# Construct: membrane preparations from rat brain; from tissue; host or cells: rat brain membranes
# Protocol details: Inhibition of [3H]-DCKA (3H-5,7-dichlorokynurenic acid) binding to the glycine binding site on the NMDA receptor, rat brain membranes
# Setup conditions: 20 nM ^3 H-DCKA; membrane preparations from rat brain; unspecific binding with 1 mM glycine; centrifugation; read-out: [^3 H]-DCKA IC50
Counter-ions that a name gives are not always drawn.
So basically: is IC50 under 900 nM? Then 1. Not under? Then 0.

Input line: Strictly below 900 nM: is that where IC50 of O=c1[nH]nc2c3c(Cl)cc(Cl)cc3[nH]c(=O)n12 sits?
Output line: 1

Input line: Same for O=c1[nH][nH]c2c1c(O)nc1cc(Cl)ccc12
Output line: 1

Input line: Same for O=c1[nH]nc2c3ccc(Br)cc3[nH]c(=O)n12
Output line: 1

Input line: Same for O=c1[nH]nc2c3cc(F)c(Cl)cc3[nH]c(=O)n12
Output line: 1

Input line: Same for Nc1cc2c(cc1Cl)[nH]c(=O)n1c(=O)[nH]nc21 [Example 29, hydrochloride]
Output line: 0

Input line: Same for O=c1[nH]nc2c3cc(N4CCOCC4)c([N+](=O)[O-])cc3[nH]c(=O)n12
Output line: 0

Input line: Same for Cc1cc2[nH]c(=O)n3c(=O)[nH]nc3c2cc1C
Output line: 1

Input line: Same for O=c1nc2c3cc(N4CCCC4)c([N+](=O)[O-])cc3[nH]c(=O)n2[nH]1 [sodium salt]
Output line: 0
